Taken from patent US20260092093A1.

EXPERIMENTAL TARGET: T1, hIL-18Rα ECD-Fc fusion protein (human, UniProt Q13478 22-329)
T1 construct: extracellular domain; captured on Protein A sensor
T1 sequence (looked up): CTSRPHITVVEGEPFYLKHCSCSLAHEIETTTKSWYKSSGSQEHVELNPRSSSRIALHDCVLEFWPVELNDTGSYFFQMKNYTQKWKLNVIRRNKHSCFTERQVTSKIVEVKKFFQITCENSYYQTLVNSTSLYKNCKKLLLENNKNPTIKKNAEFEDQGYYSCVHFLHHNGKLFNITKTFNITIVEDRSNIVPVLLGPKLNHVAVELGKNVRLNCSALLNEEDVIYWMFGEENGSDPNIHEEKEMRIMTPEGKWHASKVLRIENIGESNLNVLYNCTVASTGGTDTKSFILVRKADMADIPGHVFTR
METHOD: BLI (Octet RED96), hIL-18Rα ECD-Fc on Protein A sensor
Label scheme for kon: lower than 300000 M⁻¹ s⁻¹ is n, 300000 M⁻¹ s⁻¹ and above is y.

{"BINDER": "IL-18 variant polypeptide M35 (ligand) YFPKLRSKLSVIRNLNDQVLFIDQGNRPLFEDMTDSDCRDNAPRTIFIISMYKGSGARGMAVTISVKCEKISTLSCENKIISFKEMNPPDGIKDTKSDIIFFQRSVPGHDNKMQFESSSYEGYFLACEKERDLFKLILKKEDELGDRSIMFTVQNED", "LABEL CLASS": "y"}
{"BINDER": "IL-18 variant polypeptide M24 (ligand) YFPKLRSKLSVIRNLNDQVLFIDQGNRPLFEDMTDSDCRDNAPRTIFIISMYKYSTSRGMAVTISVKCEKISTLSCENKIISFKEMNPPDNIKDTKSDIIFFQRSVPGHDNKMQFESSSYEGYFLACEKERDLFKLILKKEDELGDRSIMFTVQNED", "LABEL CLASS": "n"}
{"BINDER": "IL-18 variant polypeptide M26 (ligand) YFPKLRSKLSVIRNLNDQVLFIDQGNRPLFEDMTDSDCRDNAPRTIFIISMYKHSDKRGMAVTISVKCEKISTLSCENKIISFKEMNPPDVIKDTKSDIIFFQYSVPGHDNKMQFESSSYEGYFLACEKERDLFKLILKKEDELGDRSIMFTVQNED", "LABEL CLASS": "n"}
{"BINDER": "IL-18 variant polypeptide M15 (ligand) YFPKLRSKLSVIRNLNDQVLFIDQGNRPLFEDMTDSDCRDNAPRTIFIISMYKSSYTRGMAVTISVKCEKISTLSCENKIISFKEMNPPDGIKDTKSDIIFFQRSVPGHDNKMQFESSSYEGYFLACEKERDLFKLILKKEDELGDRSIMFTVQNED", "LABEL CLASS": "y"}
{"BINDER": "IL-18 variant polypeptide LM3 (ligand, soluble, E. coli-made) YFPKLRSKLSIIRNLNDQVLFIDQGNRPLFEDMTDSDCRDNAPRTIFIISMYKGSGARGMAVTISVKCEKISTLSCENKIISFKEMNPPDGIKDTKSDIIFFQRSVPGHDNKMQFESSSYEGYFLACEKERDLFKLILKKEDELGDRSIMFTVQNED", "LABEL CLASS": "y"}
{"BINDER": "IL-18 variant polypeptide M3 (ligand) YFPKLKSKLSVIRNLNDQVLFIDQGNRPLFEDMTDSDCRDNAPRTIFIISMYKWSHVRGMAVTISVKCEKISTLSCENKIISFKEMNPPDAIKDTKSDIIFFQYSVPGHDNKMQFESSSYEGYFLACEKERDLFKLILKKEDELGDRSIMFTVQNED", "LABEL CLASS": "n"}
{"BINDER": "IL-18 variant polypeptide M25 (ligand) YFPKLRSKLSVIRNLNDQVLFIDQGNRPLFEDMTDSDCRDNAPRTIFIISMYKLSTTRGMAVTISVKCEKISTLSCENKIISFKEMNPPDRIKDTKSDIIFFQRSVPGHDNKMQFESSSYEGYFLACEKERDLFKLILKKEDELGDRSIMFTVQNED", "LABEL CLASS": "y"}
{"BINDER": "IL-18 variant polypeptide M17 (ligand) YFPKLRSKLSVIRNLNDQVLFIDQGNRPLFEDMTDSDCRDNAPRTIFIISMYKLSTARGMAVTISVKCEKISTLSCENKIISFKEMNPPDGIKDTKSDIIFFQRSVPGHDNKMQFESSSYEGYFLACEKERDLFKLILKKEDELGDRSIMFTVQNED", "LABEL CLASS": "y"}
{"BINDER": "IL-18 variant polypeptide LM5 (ligand, soluble, E. coli-made) YFGKLRSKLSVIRNLNDQVLFIDQGNRPLFEDMTDSDCRDNAPRTIFIISMYKWSSQRGMAVTISVKCEKISTLSCENKIISFKEMNPPDNIKDTKSDIIFFQRSVPGHDNKMQFESSSYEGYFLACEKERDLFKLILKKEDELGDRSIMFTVQNED", "LABEL CLASS": "y"}
{"BINDER": "IL-18 variant polypeptide WM6 (ligand, soluble, E. coli-made) YFDKLKSKLSVIRNLNDQVLFIDQGNRPLFEDMTDSDCRDNAPRTIFIISMYKDSQPRGMAVTISVKCEKISTLSCENKIISFKEMNPPDSIKDTKSDIIFFQRSVPGHDNKMQFESSSYEGYFLACEKERDLFKLILKKEDELGDRSIMFTVQNED", "LABEL CLASS": "n"}
{"BINDER": "IL-18 variant polypeptide M21 (ligand) YFPKLRSKLSVIRNLNDQVLFIDQGNRPLFEDMTDSDCRDNAPRTIFIISMYKSSSTRGMAVTISVKCEKISTLSCENKIISFKEMNPPDGIKDTKSDIIFFQSSVPGHDNKMQFESSSYEGYFLACEKERDLFKLILKKEDELGDRSIMFTVQNED", "LABEL CLASS": "y"}
{"BINDER": "IL-18 variant polypeptide M7 (ligand) YFPKLRSKLSVIRNLNDQVLFIDQGNRPLFEDMTDSDCRDNAPRTIFIISMYKHSTARGMAVTISVKCEKISTLSCENKIISFKEMNPPDAIKDTKSDIIFFQRSVPGHDNKMQFESSSYEGYFLACEKERDLFKLILKKEDELGDRSIMFTVQNED", "LABEL CLASS": "y"}
{"BINDER": "IL-18 variant polypeptide M40 (ligand) YFDKLKSKLSVIRNLNDQVLFIDQGNRPLFEDMTDSDCRDNAPRTIFIISMYKPSSWRGMAVTISVKCEKISTLSCENKIISFKEMNPPDWIKDTKSDIIFFQRSVPGHDNKMQFESSSYEGYFLACEKERDLFKLILKKEDELGDRSIMFTVQNED", "LABEL CLASS": "y"}
